The measured values listed here are drawn from patent US20220127247A1.

SYSTEM: delF508-CFTR (Homo sapiens, UniProt P13569, DEL508-508)
Construct: expressed in transfected cells
Sequence (P13569 with tags, fused parts or gaps DEL508-508): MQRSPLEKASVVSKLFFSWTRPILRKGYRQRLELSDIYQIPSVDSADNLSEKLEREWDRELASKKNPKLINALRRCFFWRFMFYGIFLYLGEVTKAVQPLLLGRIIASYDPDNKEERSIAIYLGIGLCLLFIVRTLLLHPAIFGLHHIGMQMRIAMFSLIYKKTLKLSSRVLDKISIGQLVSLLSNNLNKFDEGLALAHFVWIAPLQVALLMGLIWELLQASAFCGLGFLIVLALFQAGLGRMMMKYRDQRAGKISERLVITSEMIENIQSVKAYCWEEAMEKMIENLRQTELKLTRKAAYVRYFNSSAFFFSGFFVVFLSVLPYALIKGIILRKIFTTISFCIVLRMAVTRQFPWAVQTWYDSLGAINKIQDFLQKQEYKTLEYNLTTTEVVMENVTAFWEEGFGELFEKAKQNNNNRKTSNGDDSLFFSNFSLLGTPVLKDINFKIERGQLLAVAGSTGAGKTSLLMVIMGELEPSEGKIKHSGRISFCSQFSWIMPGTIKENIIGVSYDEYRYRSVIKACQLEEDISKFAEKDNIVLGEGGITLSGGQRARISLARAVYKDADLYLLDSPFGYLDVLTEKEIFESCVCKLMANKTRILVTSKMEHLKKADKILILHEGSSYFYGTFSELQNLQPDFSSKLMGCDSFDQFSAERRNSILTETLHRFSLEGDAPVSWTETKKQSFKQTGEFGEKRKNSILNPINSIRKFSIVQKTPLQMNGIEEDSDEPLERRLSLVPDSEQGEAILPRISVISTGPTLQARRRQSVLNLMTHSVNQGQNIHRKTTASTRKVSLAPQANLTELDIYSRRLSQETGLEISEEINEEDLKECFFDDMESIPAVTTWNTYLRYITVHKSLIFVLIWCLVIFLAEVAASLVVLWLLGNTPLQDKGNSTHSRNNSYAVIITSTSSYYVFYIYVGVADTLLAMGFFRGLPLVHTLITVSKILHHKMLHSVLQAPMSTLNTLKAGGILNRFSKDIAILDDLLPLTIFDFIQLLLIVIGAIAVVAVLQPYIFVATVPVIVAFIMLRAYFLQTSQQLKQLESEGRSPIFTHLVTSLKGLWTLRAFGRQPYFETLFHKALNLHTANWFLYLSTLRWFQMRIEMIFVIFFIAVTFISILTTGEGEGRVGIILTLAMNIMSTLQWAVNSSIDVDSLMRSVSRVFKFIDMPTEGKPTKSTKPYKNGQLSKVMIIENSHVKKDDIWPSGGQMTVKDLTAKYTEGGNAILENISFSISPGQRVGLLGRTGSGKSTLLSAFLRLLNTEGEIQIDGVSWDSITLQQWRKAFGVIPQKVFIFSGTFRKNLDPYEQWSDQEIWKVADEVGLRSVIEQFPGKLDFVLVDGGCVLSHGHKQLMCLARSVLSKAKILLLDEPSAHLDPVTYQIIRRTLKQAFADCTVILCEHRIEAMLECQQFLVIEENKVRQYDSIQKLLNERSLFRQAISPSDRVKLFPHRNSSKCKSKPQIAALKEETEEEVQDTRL
EXPERIMENTAL_DETAILS: delF508-CFTR functional activity in primary human bronchial epithelial cells (HBECs), Multi-Transepithelial Clamp Circuit (MTECC-24) assay
Type: cell-based
DETAILS: test compound added 24 h before assay, with potentiator (S)-3-amino-6-methoxy-N-(3,3,3-trifluoro-2-hydroxy-2-methylpropyl)-5-(trifluoromethyl)picolinamide; relative to 2 μM 3-(6-(1-(2,2-difluorobenzo[d][1,3]dioxol-5-yl)cyclopropane-1-carboxamido)-3-methylpyridin-2-yl)benzoic acid + 0.5 μM N-(2,4-di-tert-butyl-5-hydroxyphenyl)-4-oxo-1,4-dihydroquinoline-3-carboxamide
PROPERTY: MTECC24-CFHBEC Amax % (%)

[
  {
    "COMPOUND": "Cc1ccccc1-c1nc(NS(=O)(=O)c2cccc(N3CCC[C@@H](CC(=O)O)C3)n2)ccc1C(F)(F)F",
    "UNIT_OF_MEASUREMENT": "%",
    "MTECC24-CFHBEC Amax %": 128
  },
  {
    "COMPOUND": "CCN(CCCC(=O)O)c1cccc(S(=O)(=O)Nc2ccc(C(F)(F)F)c(-c3ccccc3C)n2)n1",
    "UNIT_OF_MEASUREMENT": "%",
    "MTECC24-CFHBEC Amax %": 211
  },
  {
    "COMPOUND": "Cc1ccccc1-c1nc(NS(=O)(=O)c2cccc(N(CCCC(=O)O)CC3CC3)n2)ccc1C(F)(F)F",
    "UNIT_OF_MEASUREMENT": "%",
    "MTECC24-CFHBEC Amax %": 142
  }
]

P. CCc1ccccc1-c1nc(NS(=O)(=O)c2cccc(N3CCC[C@@H](CC(=O)O)C3)n2)ccc1C(F)(F)F
Q. CCN(CCC(=O)O)c1cccc(S(=O)(=O)Nc2ccc(C(F)(F)F)c(-c3ccccc3C3CC3)n2)n1
R. CCCCN(CCCC(=O)O)c1cccc(S(=O)(=O)Nc2ccc(C(F)(F)F)c(-c3cc(F)ccc3C)n2)n1
Please list the entries, largest MTECC24-CFHBEC Amax % first. Would you mind listing the labels in the order requested? R, P, Q

I. CC(C)c1ccccc1-c1nc(NS(=O)(=O)c2cccc(N(C)CCCC(=O)O)n2)ccc1C(F)(F)F
II. Cc1ccccc1-c1nc(NS(=O)(=O)c2cccc(N(CCCC(=O)O)CC(C)C)n2)ccc1C(F)(F)F
Lab note: check whether I or II shows the higher recorded MTECC24-CFHBEC Amax %. Lab log: write the label of the selected item as the result. I
(I: 135%, II: 83%)
